biological target: Human NMT1 (HsNMT1) (Homo sapiens, UniProt P30419); assay: biochemical
Sequence (P30419 whole entry, looked up): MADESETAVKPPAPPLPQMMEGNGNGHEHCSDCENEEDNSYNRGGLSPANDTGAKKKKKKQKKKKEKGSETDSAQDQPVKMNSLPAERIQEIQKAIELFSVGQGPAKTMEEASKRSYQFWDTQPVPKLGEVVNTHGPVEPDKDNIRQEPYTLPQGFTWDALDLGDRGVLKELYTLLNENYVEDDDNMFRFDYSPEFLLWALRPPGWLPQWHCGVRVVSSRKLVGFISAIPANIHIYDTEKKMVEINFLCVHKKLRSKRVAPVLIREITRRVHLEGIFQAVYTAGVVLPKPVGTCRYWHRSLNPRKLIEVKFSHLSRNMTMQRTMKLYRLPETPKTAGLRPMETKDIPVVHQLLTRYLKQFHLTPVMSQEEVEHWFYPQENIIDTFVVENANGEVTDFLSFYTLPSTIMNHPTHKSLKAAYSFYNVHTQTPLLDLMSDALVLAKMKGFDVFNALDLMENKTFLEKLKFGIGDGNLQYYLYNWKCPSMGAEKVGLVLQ
value_kind: pIC50
Interpret pIC50 as the negative base-10 log of the concentration measured in mol/L.

Known pIC50 results, listed for orientation:
# molecule, pIC50
records = [
    ("C[C@H]1CNCCN1c1ncc(C(F)(F)F)c(N2CC(C(=O)N(C)C(C)(C)c3cnc4ccccn34)C2)n1 [Example 135]", 7.57),
    ("CN1CCCN(c2nc(N3CC(C(=O)N(C)C(C)(C)c4cnc5ccccn45)C3)c3sccc3n2)CC1 [Example 122]", 8.40),
    ("Cc1nc2ccccn2c1CNC(=O)C1CN(c2nc(N3CCCNCC3)ncc2F)C1 [Example 12]", 6.89),
]

Consider the additional molecule presented here.
INPUT: Dear colleague, I am looking for the recorded pIC50 of the following molecule: CC1CN(c2ncc(F)c(N3CC(C(=O)NC(C)(C)c4cnc5ccccn45)C3)n2)C[C@@H](C)N1 (stereo partly shown) [Example 47]
OUTPUT: 7.37

* * *

molecular target: Plasmodium vivax (Pv) NMT (Plasmodium vivax (strain Salvador I)); assay: biochemical
A collection of compounds and their measured IC50
Supply the numeric figure in nM, leaving out any unit text.

# compound, value_kind, readout_value
records = [
    ("O=C(NCc1cnc2ccccn12)C1CN(c2nc(N3CCNCC3)ncc2F)C1", "IC50", 68),
    ("C[C@H]1CN(c2ncc(Cl)c(N3CCC(C(=O)NC(C)(C)c4cnc5ccccn45)CC3)n2)CCN1C", "IC50", 33),
    ("CC(C)(NC(=O)C1CN(c2nc(N3CCNCC3)ncc2F)C1)c1cnc2ccccn12", "IC50", 9.1),
    ("Cc1ccc2ncc(C(C)(C)NC(=O)C3CN(c4nc(N5CCN(C)CC5)ncc4Cl)C3)n2c1", "IC50", 5.6),
    ("CN1CCN(c2ncc(Cl)c(N3CC(C(=O)NC(C)(C)c4cnc5ccccn45)C3)n2)CC1", "IC50", 4.4),
]

INPUT: Would you kindly share the measured IC50 for `Cc1ccc2ncc(C(C)(C)NC(=O)C3CN(c4nc(N5CCN(C)[C@H](C)C5)ncc4Cl)C3)n2c1` ?
OUTPUT: 5.8

INPUT: Item: CC(NC(=O)C1CN(c2nc(N3CCCNCC3)ncc2F)C1)c1cnc2ccccn12 (centres unmarked)
OUTPUT: 41

INPUT: Can you handle `C[C@H]1CN(C)CCN1c1ncc(Cl)c(N2CC(C(=O)NC(C)(C)c3cnc4ccccn34)C2)n1` next?
OUTPUT: 4.1

INPUT: // repeat for `COc1cnc(N2CCN[C@@H](C)C2)nc1N1CC(C(=O)NC(C)(C)c2cnc3ccccn23)C1` and report
OUTPUT: 12

INPUT: Item: `CCN1CCN(c2ncc(Cl)c(N3CC(C(=O)NC(C)(C)c4cnc5ccccn45)C3)n2)CC1`
OUTPUT: 8.6

INPUT: Record: C[C@@H]1CN(c2ncc(F)c(N3CCC(C(=O)NC(C)(C)c4cnc5ccccn45)C3)n2)CCN1C (some centres unmarked)
OUTPUT: 7

* * *

system: SU-DHL-10 cells; assay: Cell cytotoxicity in SU-DHL-10 cell line (CellTiter-Glo); assay type: cell-based; settings: Homo sapiens, SU-DHL10; CellTiter-Glo, 48 h; read-out: SU-DHL-10 EC50
Reported EC50 values follow for various molecules

Sample answers from the record:
# molecule, readout_value
measured = [
    ("C[C@H]1CNCCN1c1nc(N2CC(C(=O)N(C)C(C)(C)c3cnc4ccccn34)C2)c2sccc2n1 [Example 125]", "361 nM"),
    ("C[C@@H]1CNCCN1c1ncc(Cl)c(N2CC(C(=O)N(C)C(C)(C)c3cnc4ccccn34)C2)n1 [Example 138]", "742 nM"),
    ("C[C@H]1CN(c2ncc(Cl)c(N3CC(C(=O)N(C)C(C)(C)c4cnc5ccccn45)C3)n2)CCN1 [Example 139]", "542 nM"),
    ("C[C@@H]1CN(c2ncc(Cl)c(N3CC(C(=O)N(C)C(C)(C)c4cnc5ccccn45)C3)n2)CCN1 [Example 124]", "448 nM"),
    ("C[C@H]1CN(C)CCN1c1ncc(Cl)c(N2CC(C(=O)NC(C)(C)c3cnc4ccccn34)C2)n1 [Example 2]", "51 nM"),
]

INPUT: Return reported EC50; argument: CC1CNCCN1c1ncc(Cl)c(N2CC(C(=O)N(C)C(C)(C)c3cnc4ccccn34)C2)n1 (centres unmarked) [Example 50]
OUTPUT: 35 nM

INPUT: Try this molecule too: CC1NCCN(c2ncc(Cl)c(N3CC(C(=O)NC(C)(C)c4cnc5ccccn45)C3)n2)C1C (centres unmarked) [Example 143]
OUTPUT: 5 nM

INPUT: Try CCN(C(=O)C1CN(c2nc(N3CCNCC3)ncc2Cl)C1)C(C)(C)c1cnc2ccccn12 [Example 136] next.
OUTPUT: 161 nM

INPUT: Next molecule: C[C@H]1CNCCN1c1ncc(Cl)c(N2CC(C(=O)NC(C)(C)c3cnc4ccccn34)C2)n1 [Example 129]
OUTPUT: 6 nM

INPUT: Again, but for CN(C(=O)C1CN(c2nc(N3CCNC4CC43)ncc2Cl)C1)C(C)(C)c1cnc2ccccn12 (centres unmarked) [Example 146]
OUTPUT: 597 nM

INPUT: CN(C(=O)C1CN(c2nc(N3CCNCC3)ncc2Cl)C1)C(C)(C)c1cnc2ccccn12 [Example 119] , same question.
OUTPUT: 925 nM

INPUT: For CC1CN(c2ncc(Cl)c(N3CC(C(=O)NC(C)(C)c4cnc5ccccn45)C3)n2)C[C@H](C)N1 (some centres unmarked) [Example 48] then?
OUTPUT: 795 nM

INPUT: Same again, this time with C[C@H]1CNCCN1c1ncc(C(F)(F)F)c(N2CC(C(=O)N(C)C(C)(C)c3cnc4ccccn34)C2)n1 [Example 135]
OUTPUT: 767 nM

INPUT: Check CC1NCCN(c2ncc(Cl)c(N3CC(C(=O)N(C)C(C)(C)c4cnc5ccccn45)C3)n2)C1C (centres unmarked) [Example 134] too.
OUTPUT: 106 nM

* * *

biological target: Plasmodium vivax (Pv) NMT (Plasmodium vivax (strain Salvador I), UniProt A5K1A2); assay: biochemical
Sequence (A5K1A2 1-410): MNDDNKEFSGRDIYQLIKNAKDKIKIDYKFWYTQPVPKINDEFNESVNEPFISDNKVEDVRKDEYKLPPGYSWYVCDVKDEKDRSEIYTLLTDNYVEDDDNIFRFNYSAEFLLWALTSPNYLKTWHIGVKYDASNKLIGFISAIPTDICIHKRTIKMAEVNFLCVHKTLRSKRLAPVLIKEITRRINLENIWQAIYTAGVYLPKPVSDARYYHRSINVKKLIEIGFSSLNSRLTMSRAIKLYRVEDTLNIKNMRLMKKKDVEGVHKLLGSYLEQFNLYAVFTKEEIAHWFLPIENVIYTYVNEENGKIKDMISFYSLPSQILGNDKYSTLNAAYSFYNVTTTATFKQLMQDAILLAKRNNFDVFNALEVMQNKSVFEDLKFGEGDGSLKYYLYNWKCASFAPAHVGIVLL
value_kind: IC50

The examples below pair each entry with its known result.
# compound, IC50
data = [
    ("CN1CCC(N(C)c2ncc(F)c(N3CC(C(=O)NC(C)(C)c4cnc5ccccn45)C3)n2)C1 (stereo not shown) [Example 58]", "13 nM"),
    ("O=C(NCc1cnc2cc(F)ccn12)C1CN(c2nc(N3CCCNCC3)ncc2Cl)C1 [Example 21]", "17 nM"),
    ("CC1CN(c2ncc(F)c(N3CC(C(=O)NC(C)(C)c4cnc5ccccn45)C3)n2)C[C@@H](C)N1 (stereo partly shown) [Example 47]", "12.2 nM"),
]

Please turn your attention to the following entry.
INPUT: # input compound: Cc1nc2ccccn2c1C(C)NC(=O)C1CN(c2nc(N3CCCNCC3)ncc2Cl)C1 (stereo not shown) [Example 24] ; wanted: its IC50
OUTPUT: 12 nM

* * *

tested on: Plasmodium falciparum 3D7; assay: SYBR Green assay, Plasmodium falciparum strain 3D7; format: cell-based; settings: P. falciparum strain 3D7, 96 h incubation, read-out: Pf EC50 strain 3D7
Listed here are molecules together with their documented EC50.
Answer with a number only, understood to be in µM.

# molecule, EC50 (µM)
data = [
    ("COc1cnc(N2CCCN(C)CC2)nc1N1CC(C(=O)NC(C)(C)c2cnc3ccccn23)C1", 0.011),
    ("Cc1cnc(N2CCN(C)CC2)nc1N1CC(C(=O)NC(C)(C)c2cnc3ccccn23)C1", 0.32),
    ("CC(NC(=O)C1CN(c2nc(N3CCNCC3)ncc2Cl)C1)c1cnc2ccccn12 (centres unmarked)", 0.96),
]

Now for another entry.
INPUT: EC50 for `C[C@H]1CN(c2ncc(Cl)c(N3CC(C(=O)NC(C)(C)c4cnc5ccccn45)C3)n2)CCN1` ?
OUTPUT: 0.027

* * *

system: Plasmodium falciparum 3D7; assay: SYBR Green assay, Plasmodium falciparum strain 3D7; assay type: cell-based; details: P. falciparum strain 3D7, 96 h incubation, read-out: Pf EC50 strain 3D7
pEC50: −log10 of the molar value.
Item-by-item account of pEC50

# smiles_structure, system, pEC50
records = [
    ("CN1CCN(c2ncc(F)c(N3CC(C(=O)N(C)C(C)(C)c4cnc5ccccn45)C3)n2)CC1", "Plasmodium falciparum 3D7", "< 6.00"),
    ("C[C@H]1CN(c2ncc(Cl)c(N3CCC(C(=O)NC(C)(C)c4cnc5ccccn45)CC3)n2)CCN1C", "Plasmodium falciparum 3D7", "< 6.00"),
]

Kindly review the next compound as well.
INPUT: Form: Entry = `CN1CCN(c2ncc(F)c(N3CC(C)(C(=O)NC(C)(C)c4cnc5ccccn45)C3)n2)CC1` | System = Plasmodium falciparum 3D7 | pEC50 = ____
OUTPUT: < 6.00
